- Protocol details: in vitro
- Format: cell-based, murine
- Cond: mouse
Measured property: IC50 at 24 h

1) O=c1c(O)c(-c2ccc(O)c(O)c2)oc2cc(O)cc(O)c12 [Quercetin] : 65 µg/mL
